Data credit: PubChem BioAssay

Experiment: binders of probe aFGF10 on microarray, primary screen, stem cell growth factor project, biochemical, small-molecule microarray, fluorescence 635/667 (AID 1071);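 further: score merges 667 nm spot intensity and signal to noise from triplicate slides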
Conditions: higher = more signal
For each of the compounds below, state its composite z-score.
Reply briefly: the number, and no unit.

QUERY: Would you kindly share the measured composite z-score for CC1(C)C2C=C(C(O)C3C=CC4C(=O)NC(=O)C4N3Nc3ccc(Cl)cc3Cl)C[C@@H]1C2 (some centres undefined) ?
RESULT: 0.519

QUERY: Would you kindly share the measured composite z-score for "NC(=O)NCC#Cc1ccc2c(c1)[C@]1(C(=O)N2)[C@H](c2ccccc2OCCO)N2[C@H](c3ccccc3)[C@H](c3ccccc3)OC(=O)[C@H]2[C@@H]1C(=O)Nc1nc2ccccc2s1" ?
RESULT: 0.268

QUERY: Would you kindly share the measured composite z-score for O=C(OCc1ccccc1)C1=CCC2c3[nH]c4ccccc4c3C(=O)C1N2S(=O)(=O)c1ccccc1[N+](=O)[O-] (centres undefined) ?
RESULT: 0.982

QUERY: Would you kindly share the measured composite z-score for N#Cc1ccc(NN2C(C(O)C(c3ccccc3)c3ccccc3)C=CC3C(=O)N(c4ccccc4)C(=O)C32)cc1 (centres undefined) ?
RESULT: 0.952

====

Experiment: inhibitors of hydroxyurea-induced Chk1 phosphorylation, primary screen, imaging, HeLa, phospho-Chk1 antibody, percent positive cells (AID 1186)
Conditions: hydroxyurea-induced phospho-Chk1 immunofluorescence imaging, higher = more signal
Could you label it class 1 if measured z-score is -0.005 or higher, and class 0 otherwise?

QUERY: Say whether "CCOC(=O)C[C@H]1[C@H](OC(=O)c2ccc(-c3ccccc3)cc2)[C@@H](NC(=O)Cc2ccc(OC)cc2)c2cc(OCCCO)ccc2N1C(=O)c1ccccc1" shows z-score of -0.005 or more.
RESULT: class 1

QUERY: Say whether "C=C[C@H](OC)[C@@H](OC(=O)Nc1ccc(OC)cc1)c1ccc(O)c(F)c1" shows z-score of -0.005 or more.
RESULT: class 1

QUERY: Say whether "C#C[C@H](O[Si](C#Cc1ccc(Oc2ccccc2)cc1)(C(C)C)C(C)C)c1ccccc1" shows z-score of -0.005 or more.
RESULT: class 1

QUERY: Say whether COc1ccc(C(O)C2C=CC3C(=O)N(Cc4ccccc4)C(=O)C3N2n2cnnc2)cc1OCc1ccccc1 (stereo not drawn) shows z-score of -0.005 or more.
RESULT: class 0

QUERY: Say whether "C=C(CCCC)/C(=C/C[C@@H](OC(C)=O)c1ccc(OCCO)cc1)c1cnc2ccccc2c1" shows z-score of -0.005 or more.
RESULT: class 0

QUERY: Say whether "COC(=O)[C@@]1(Cc2ccc(F)cc2)[C@H]2c3cc(C(=O)N(C)C)n(Cc4cc(F)c(F)c(F)c4)c3C[C@H]2CN1C(=O)c1ccccc1" shows z-score of -0.005 or more.
RESULT: class 1

QUERY: Say whether "C=C(/C(=C/C[C@H](OC(C)=O)c1ccccc1OCCO)c1cnc2ccccc2c1)C(C)C" shows z-score of -0.005 or more.
RESULT: class 1

QUERY: Say whether "CCOC(=O)[C@H]1C/C=C/C[C@H](C(=O)OCC)C(=O)O[C@H]2[C@@H](OC)O[C@H](CO)[C@@H](OC(=O)c3c(OC)cccc3OC)[C@@H]2OC1=O" shows z-score of -0.005 or more.
RESULT: class 0

====

Assay: binders of probe aFGF10 on microarray, primary screen, stem cell growth factor project, biochemical, small-molecule microarray, fluorescence 635/667 (AID 1071);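 further: score merges 667 nm spot intensity and signal to noise from triplicate slides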
Conditions: higher = more signal
value_kind: composite z-score

QUERY: Would you kindly share the measured composite z-score for "O=C(c1ccccc1)N1C(=O)[C@]2(COC(c3ccc(OCCCO)cc3)=N2)Cc2ccccc21" ?
RESULT: 0.879

QUERY: Would you kindly share the measured composite z-score for [N-]=[N+]=Nc1ccccc1[C@H]1OC(c2ccc(OCCCO)cc2)=N[C@@]1(CCS(=O)(=O)c1ccccc1)C(=O)NCC(O)CO (stereo partly drawn) ?
RESULT: 0.543

QUERY: Would you kindly share the measured composite z-score for O=C1NC(=O)C2C1C=CC(C(O)c1cc(C(F)(F)F)cc(C(F)(F)F)c1)N2Nc1ccccn1 (stereo not drawn) ?
RESULT: 0.121

QUERY: Would you kindly share the measured composite z-score for "COC(=O)[C@@]1(CCC(=O)OC(C)(C)C)N=C(c2ccc(OCCCO)cc2)O[C@H]1c1ccccc1N=[N+]=[N-]" ?
RESULT: -0.312

QUERY: Would you kindly share the measured composite z-score for "CC[C@@H]1C=C(C(=O)O)[C@H](c2ccc(Br)cc2)N1S(=O)(=O)c1ccc(C)cc1" ?
RESULT: 0.638

QUERY: Would you kindly share the measured composite z-score for "C=C(CCCC)/C(=C/C[C@@H](OC(C)=O)c1ccc(OCCO)cc1)c1cnc2ccccc2c1" ?
RESULT: 0.242

QUERY: Would you kindly share the measured composite z-score for C=C(C)[C@@H]1CC=C(C(O)C2C=CC3C(=O)N(C)C(=O)C3N2Nc2ccccc2)CC1 (stereo partly drawn) ?
RESULT: 0.394

QUERY: Would you kindly share the measured composite z-score for "C=CCN1C(=O)[C@]2(O[C@H](CCn3cc([C@H](O)c4ccccc4)nn3)[C@@H]([Si](C)(C)c3ccc(OC)cc3)[C@@H]2C)c2cc(N3CCC3=O)ccc21" ?
RESULT: 0.679

====

System: XIP peptide (Xip251-270) binding
Assay: small-molecule binders of XIP peptide, primary screen, biochemical, small-molecule microarray, fluorescence 635/667 nm, 0.1 µg/mL protein (AID 1182)
Settings: fluorescent protein binding, 635 nm, higher = more signal, called active from +8 up or from −8 down
Could you label it criterion met if measured composite z-score is 0.3 or higher, and criterion not met otherwise?

QUERY: Say whether C=CCC(OC(C)=O)[C@@H]1[C@@H](N(Cc2ccc(-c3ccccc3)cc2)C(=O)Cc2ccc(OC)cc2)c2cc(OCCCO)ccc2N1C(=O)Cc1ccc2ccccc2c1 (stereo partly drawn) shows composite z-score of 0.3 or more.
RESULT: criterion met

QUERY: Say whether CC1CC/C=C\[C@H]2OC34C=CCN(Cc5ccccc5)C(=O)[C@H]3N(CCCO)C(=O)[C@@H]4C2C(=O)O1 (stereo partly drawn) shows composite z-score of 0.3 or more.
RESULT: criterion not met

QUERY: Say whether "CCCCCCc1nc(-c2cc(C)c(OC)c(C)c2)cc2c1[Si](C(C)C)(C(C)C)OC2" shows composite z-score of 0.3 or more.
RESULT: criterion not met

QUERY: Say whether C=CCC(OC(C)=O)[C@@H]1[C@@H](N(Cc2ccc(-c3ccccc3)cc2)C(=O)c2ccc(-c3ccccc3)cc2)c2cc(OCCCO)ccc2N1C(=O)Cc1ccc2ccccc2c1 (stereo partly drawn) shows composite z-score of 0.3 or more.
RESULT: criterion not met

QUERY: Say whether "Cc1ccc(N2C(=O)c3ccccc3[C@@H](C(=O)NC3CC3)[C@@H]2c2ccc(CO)cc2)nc1" shows composite z-score of 0.3 or more.
RESULT: criterion not met

QUERY: Say whether C=C(C)[C@@H]1CC=C(C(O)C2C=CC3C(=O)N(c4ccccc4)C(=O)C3N2Nc2ccccc2)CC1 (stereo partly drawn) shows composite z-score of 0.3 or more.
RESULT: criterion not met

QUERY: Say whether "NCCCCCCNC(=O)[C@@H]1C[C@@H]2C(=O)NCC(=O)N2[C@@H]1c1ccc(O)cc1" shows composite z-score of 0.3 or more.
RESULT: criterion not met

QUERY: Say whether CC1(C)[C@@H]2CC(C(O)C3C=CC4C(=O)N(c5ccccc5)C(=O)C4N3Nc3ccc([N+](=O)[O-])cc3)=C[C@H]1C2 (stereo partly drawn) shows composite z-score of 0.3 or more.
RESULT: criterion not met

QUERY: Say whether "CCCC[C@@H]1C[C@H]1[C@@H](NC(=O)c1ccco1)c1ccc(-c2ccccc2)cc1" shows composite z-score of 0.3 or more.
RESULT: criterion not met

QUERY: Say whether "CN(C)CCCCCCNC(=O)[C@H]1C[C@H]2C(=O)N3CCC[C@H]3C(=O)N2[C@H]1c1ccc(O)cc1" shows composite z-score of 0.3 or more.
RESULT: criterion met

QUERY: Say whether "COCCOC(=O)N1C(=O)[C@@]2(c3cc(C#CCNC(N)=O)ccc31)[C@H](C(=O)Nc1nc3ccccc3s1)[C@H]1C(=O)O[C@H](c3ccccc3)[C@H](c3ccccc3)N1[C@@H]2c1ccc(OCCO)cc1" shows composite z-score of 0.3 or more.
RESULT: criterion not met

QUERY: Say whether "CC(C)C(=C=CC[C@@H](O)c1ccc(OCCO)cc1)C[C@@H](O)c1ccccn1" shows composite z-score of 0.3 or more.
RESULT: criterion met

QUERY: Say whether "COCCOC(=O)N1C(=O)[C@@]2(c3cc(C#Cc4ccc(OC)cc4)ccc31)[C@H](c1ccc(O)cc1)N1[C@H](c3ccccc3)[C@H](c3ccccc3)OC(=O)[C@H]1[C@@H]2C(=O)N1CCc2cc(OC)c(OC)cc2C1" shows composite z-score of 0.3 or more.
RESULT: criterion not met

QUERY: Say whether "CCOC(=O)C[C@H]1[C@H](OC(=O)c2ccc(C(=O)c3ccccc3)cc2)[C@@H](NC(=O)c2ccc3ccccc3n2)c2cc(OCCCO)ccc2N1C(=O)c1ccccc1" shows composite z-score of 0.3 or more.
RESULT: criterion not met

QUERY: Say whether [N-]=[N+]=NCc1ccccc1[C@@H]1OC(c2ccc(OCCCO)cc2)=N[C@]1(Cc1ccccc1)C(=O)NCC(O)CO (stereo partly drawn) shows composite z-score of 0.3 or more.
RESULT: criterion not met

QUERY: Say whether "COc1ccc(C(=O)Nc2ccc(CN3C(=O)[C@]4(O[C@H](CCO)[C@@H]([Si](C)(C)c5ccc(OC)cc5)[C@@H]4C)c4ccccc43)cc2)cc1" shows composite z-score of 0.3 or more.
RESULT: criterion met

QUERY: Say whether "C=CCNC(=O)[C@@H]1[C@H]2C(=O)O[C@H](c3ccccc3)[C@H](c3ccccc3)N2[C@H](c2ccc(O)cc2)[C@@]12C(=O)Nc1ccc(C#CCNC(N)=O)cc12" shows composite z-score of 0.3 or more.
RESULT: criterion met

QUERY: Say whether "C=CCNC(=O)[C@@H]1[C@H]2C(=O)O[C@H](c3ccccc3)[C@H](c3ccccc3)N2[C@H](c2ccccc2OCCO)[C@@]12C(=O)N(C(=O)OCCOC)c1ccccc12" shows composite z-score of 0.3 or more.
RESULT: criterion met

QUERY: Say whether "Cc1nc2cc(Br)ccc2c(=O)o1" shows composite z-score of 0.3 or more.
RESULT: criterion met

QUERY: Say whether "CC(C)NC(=O)[C@@]1(c2ccc([N+](=O)[O-])cc2)CC(=O)N(C2CCCCC2)[C@@H]1c1ccc(CO)cc1I" shows composite z-score of 0.3 or more.
RESULT: criterion met

QUERY: Say whether CC(C)C(CO)N1C(=O)[C@@H]2C3C(=O)OCCC/C=C\[C@H]3OC23C=CCN(CCN2CCOCC2)C(=O)[C@@H]13 (stereo partly drawn) shows composite z-score of 0.3 or more.
RESULT: criterion not met

QUERY: Say whether N#Cc1ccc(NN2C(C(O)C(c3ccccc3)c3ccccc3)C=CC3C(=O)N(c4ccccc4)C(=O)C32)cc1 (stereo not drawn) shows composite z-score of 0.3 or more.
RESULT: criterion met

QUERY: Say whether Cc1ccccc1C(O)C1C=CC2C(=O)N(c3ccccc3)C(=O)C2N1Nc1ccc(C(C)C)cc1 (stereo not drawn) shows composite z-score of 0.3 or more.
RESULT: criterion not met

QUERY: Say whether "CCOC(=O)C[C@H]1[C@H](OC(=O)c2ccc(C(=O)c3ccccc3)cc2)[C@@H](NC(=O)CC(C)C)c2cc(OCCCO)ccc2N1C(=O)c1ccc2ccccc2n1" shows composite z-score of 0.3 or more.
RESULT: criterion met

QUERY: Say whether O[C@@H](Cc1ccccc1)[C@H]1C2C=CCCC=C2CN1Cc1cccc(Cl)c1 (stereo partly drawn) shows composite z-score of 0.3 or more.
RESULT: criterion not met

QUERY: Say whether CC(C)C(O)C1C=CC2C(=O)N(c3ccccc3)C(=O)C2N1Nc1ccc([N+](=O)[O-])cc1 (stereo not drawn) shows composite z-score of 0.3 or more.
RESULT: criterion not met

QUERY: Say whether "CCOC(=O)C[C@H]1[C@H](OC(=O)c2cc3ccccc3oc2=O)[C@@H](NC(=O)c2ccccc2)c2cc(OCCCO)ccc2N1C(=O)c1ccc2ccccc2n1" shows composite z-score of 0.3 or more.
RESULT: criterion not met

QUERY: Say whether "COc1ccc(CCNC(=O)[C@@]2(Sc3ccc(C)cc3)CC(=O)N(C(C)C)[C@@H]2c2ccc(CO)cc2I)cc1" shows composite z-score of 0.3 or more.
RESULT: criterion met
